Assignment: determine reported shrunken log2 fold change for the given sequences.
# System: Escherichia coli TOP10
# TEST: shrunken log2 fold change of peptide-encoding DNA abundance (4.5 h post-induction vs induction); higher = less antimicrobial activity (less host growth inhibition)
# PROTOCOL_CONDITIONS: time post-induction: 4.5 h; library: site-saturation at positions 5, 18, 19, 20

Determine from records and report shrunken log2 fold change for `RRIRLRPPRLPRPRPRPKIQPRP` -0.131

Please indicate shrunken log2 fold change recorded for `RRIRKRPPRLPRPRPRPDTGPRP` -0.0244

Return shrunken log2 fold change (reported value) for this sequence: `RRIRFRPPRLPRPRPRPAREPRP` 0.612

Give the measured shrunken log2 fold change for `RRIRNRPPRLPRPRPRPRLGPRP` 0.187

Note down shrunken log2 fold change recorded for `RRIRPRPPRLPRPRPRPPDTPRP` 0.148

Provide shrunken log2 fold change value for the following sequence: `RRIRFRPPRLPRPRPRPAFRPRP` 0.132

Specify reported shrunken log2 fold change for the sequence shown: `RRIRKRPPRLPRPRPRPIVCPRP` -0.00674

Tell me shrunken log2 fold change reported for `RRIRKRPPRLPRPRPRPSIDPRP` 0.175

For the sequence `RRIRGRPPRLPRPRPRPVKEPRP` , give its measured shrunken log2 fold change value. 0.604

Please supply the value of reported shrunken log2 fold change for the item `RRIRFRPPRLPRPRPRPFTGPRP` -0.246

Please give measured shrunken log2 fold change of the following entry: `RRIRWRPPRLPRPRPRPMPTPRP` 0.721

Provide shrunken log2 fold change value for the following sequence: `RRIRSRPPRLPRPRPRPITPPRP` 0.0356

Give me measured shrunken log2 fold change, please, for this sequence: `RRIRNRPPRLPRPRPRPYLWPRP` -0.23

Answer with the recorded shrunken log2 fold change of `RRIRHRPPRLPRPRPRPSGRPRP` only. 0.0298

Please look at this sequence and report its shrunken log2 fold change: `RRIRPRPPRLPRPRPRPNMTPRP` -0.13

Hello, please tell me recorded shrunken log2 fold change for this one: `RRIRVRPPRLPRPRPRPEMFPRP` -0.0822

Quick one: give measured shrunken log2 fold change for `RRIRDRPPRLPRPRPRPHLSPRP` 0.0479

Name the recorded shrunken log2 fold change of the item `RRIRDRPPRLPRPRPRPTEKPRP` in your answer. 0.0633

Check the records and state shrunken log2 fold change for `RRIRVRPPRLPRPRPRPKMCPRP` -0.00991

Give me measured shrunken log2 fold change, please, for this sequence: `RRIRYRPPRLPRPRPRPDMRPRP` -0.00508

# return recorded shrunken log2 fold change for entry `RRIRWRPPRLPRPRPRPMGYPRP` -0.132

Give the measured shrunken log2 fold change for `RRIRERPPRLPRPRPRPQQDPRP` -0.108

Supply recorded shrunken log2 fold change for `RRIRVRPPRLPRPRPRPLNLPRP` here. -0.304

Tell us which shrunken log2 fold change value is on record for `RRIRERPPRLPRPRPRPQVIPRP` -0.125

----------
So I've got a bunch of sequences here, and I need their shrunken log2 fold change values.
# Test system: Escherichia coli TOP10;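 further: peptides expressed intracellularly from a pBAD plasmid library in pooled LB shake-flask culture, induced with 0.3% L-arabinose, DNA abundance read by NGS, three biological replicates, DESeq2 with apeglm shrinkage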
# TEST: shrunken log2 fold change of peptide-encoding DNA abundance (4.5 h post-induction vs induction); higher = less antimicrobial activity (less host growth inhibition)
# PROTOCOL_CONDITIONS: time post-induction: 4.5 h; library: site-saturation at positions 5, 18, 19, 20
When you answer, write just the number.

Report shrunken log2 fold change for `RRIRARPPRLPRPRPRPGGAPRP` 0.76

Specify shrunken log2 fold change for `RRIRKRPPRLPRPRPRPNIPPRP` and stop. -0.237

Return shrunken log2 fold change (reported value) for this sequence: `RRIRNRPPRLPRPRPRPTAFPRP` 0.00576
